biological target: UniProt:P00533
Sequence (P00533 25-1210): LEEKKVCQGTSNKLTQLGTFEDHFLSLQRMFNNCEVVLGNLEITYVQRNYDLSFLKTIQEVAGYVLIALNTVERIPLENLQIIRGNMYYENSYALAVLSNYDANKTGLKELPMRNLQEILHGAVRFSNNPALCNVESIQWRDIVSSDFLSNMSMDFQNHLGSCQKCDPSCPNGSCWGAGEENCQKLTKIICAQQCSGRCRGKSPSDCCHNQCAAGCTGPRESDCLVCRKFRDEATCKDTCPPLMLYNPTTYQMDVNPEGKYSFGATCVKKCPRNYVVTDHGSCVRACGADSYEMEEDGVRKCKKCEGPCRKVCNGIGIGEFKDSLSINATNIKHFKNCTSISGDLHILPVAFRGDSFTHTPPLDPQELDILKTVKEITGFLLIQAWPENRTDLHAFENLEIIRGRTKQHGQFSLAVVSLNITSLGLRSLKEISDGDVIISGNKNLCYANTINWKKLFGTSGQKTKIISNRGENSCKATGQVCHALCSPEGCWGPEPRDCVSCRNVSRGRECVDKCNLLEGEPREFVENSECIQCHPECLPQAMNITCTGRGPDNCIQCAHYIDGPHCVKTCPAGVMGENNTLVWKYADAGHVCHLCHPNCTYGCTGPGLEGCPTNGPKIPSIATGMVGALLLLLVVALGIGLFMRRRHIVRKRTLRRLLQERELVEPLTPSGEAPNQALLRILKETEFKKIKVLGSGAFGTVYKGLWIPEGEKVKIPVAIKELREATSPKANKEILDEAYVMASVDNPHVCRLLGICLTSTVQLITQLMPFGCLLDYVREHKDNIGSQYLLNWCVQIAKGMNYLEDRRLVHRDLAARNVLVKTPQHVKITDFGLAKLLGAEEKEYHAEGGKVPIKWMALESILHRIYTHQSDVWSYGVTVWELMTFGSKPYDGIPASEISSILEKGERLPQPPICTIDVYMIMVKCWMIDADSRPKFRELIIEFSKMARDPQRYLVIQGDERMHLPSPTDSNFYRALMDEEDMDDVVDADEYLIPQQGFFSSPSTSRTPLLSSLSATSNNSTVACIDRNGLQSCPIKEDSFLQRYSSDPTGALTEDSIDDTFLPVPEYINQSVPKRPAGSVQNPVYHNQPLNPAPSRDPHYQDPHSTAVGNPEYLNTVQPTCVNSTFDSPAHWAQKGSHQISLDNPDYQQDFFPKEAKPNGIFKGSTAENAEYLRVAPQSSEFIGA
pIC50: −log10 of the molar value.
readout kind: pIC50

>>> print(df.to_string())
                            compound_string  readout_value
0  Cn1cnc2c1c(=O)n(CC(=O)NCc1ccccc1)c(=O)n2C           7.76
